System: EW-13;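 further: growth inhibition of EW-13 cells, read out with a cell viability assay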
Test: cells
Type: functional, cell-based
Details: Homo sapiens
Description: SANGER: Inhibition of human EW-13 cell growth in a cell viability assay.
pIC50: −log10 of the molar value.
Some molecules, each annotated with its measured pIC50.

Guide cases for pIC50, answers given:
- structure: "Cc1cnc(-c2cnc(NCCNc3ccc(C#N)cn3)nc2-c2ccc(Cl)cc2Cl)[nH]1"
  parameter: "pIC50"
  reportedMeasurement: "< 5.59"
- structure: "CO[C@H]1C[C@@H]2CC[C@@H](C)[C@@](O)(O2)C(=O)C(=O)N2CCCC[C@H]2C(=O)O[C@H]([C@H](C)C[C@@H]2CC[C@@H](O)[C@H](OC)C2)CC(=O)[C@H](C)/C=C(\\C)[C@@H](O)[C@@H](OC)C(=O)[C@H](C)C[C@H](C)/C=C/C=C/C=C/1C"
  parameter: "pIC50"
  reportedMeasurement: "< 7.00"

Next item in the queue.
Query: What value of pIC50 on EW-13 does Cn1cncc1[C@@](N)(c1ccc(Cl)cc1)c1ccc2c(c1)c(-c1cccc(Cl)c1)cc(=O)n2C have?
Reply: 5.19

* * *

Test system: CWR22R
Test: cells
Format: functional, cell-based, Homo sapiens
Details: cwr22r
Description: SANGER: Inhibition of human 22RV1 cell growth in a cell viability assay.
pIC50: −log10 of the molar value.
parameter: pIC50

Query: Which value of pIC50 has been reported for Cc1cc([C@@H](C)Nc2ccccc2C(=O)O)c2nc(N3CCOCC3)cc(=O)n2c1 [AZD-6482] in the records?
Reply: < 5.29

* * *

Some molecules, each annotated with its measured IC50.
System: ES4;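 further: growth inhibition of human ES4 cells, read out by a cell viability assay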
Assay: cells
Format: functional, cell-based, Homo sapiens
Settings: Homo sapiens, ES4
Description: SANGER: Inhibition of human ES4 cell growth in a cell viability assay.

Guide cases for IC50, answers given:
- molecule: "O=C(c1cc(Cc2n[nH]c(=O)c3ccccc23)ccc1F)N1CCN(C(=O)C2CC2)CC1"
  IC50: "> 5000 nM"
- molecule: "Cn1cc(C2=C(c3ccc(Cl)cc3Cl)C(=O)NC2=O)c2ccccc21"
  IC50: "> 10000 nM"
- molecule: "C[C@]1(O)C[C@@H](c2nc(-c3ccc4ccc(-c5ccccc5)nc4c3)c3c(N)nccn32)C1"
  IC50: "410 nM"
- molecule: "CS(=O)(=O)CCNCc1ccc(-c2ccc3ncnc(Nc4ccc(OCc5cccc(F)c5)c(Cl)c4)c3c2)o1"
  IC50: "> 2000 nM"
- molecule: "COc1cc([C@@H]2c3cc4c(cc3[C@@H](O[C@@H]3O[C@@H]5CO[C@@H](C)O[C@H]5[C@H](O)[C@H]3O)[C@H]3COC(=O)[C@H]23)OCO4)cc(OC)c1O [ETOPOSIDE]"
  IC50: "521 nM"

Next item in the queue.
Query: Which value of IC50 has been reported for Cc1ccc(Nc2nccc(N(C)c3ccc4c(C)n(C)nc4c3)n2)cc1S(N)(=O)=O in the records?
Reply: > 8000 nM

* * *

Tested on: SW 954;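 further: growth inhibition of SW954 human cancer cells, read out as cell viability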
Assay: cells
Format: functional, cell-based, Homo sapiens
Settings: Homo sapiens, SW 954
Description: SANGER: Inhibition of human SW954 cell growth in a cell viability assay.
pIC50: −log10 of the molar value.
parameter: pIC50

Guide cases for pIC50, answers given:
- compound: "C[C@]1(O)C[C@@H](c2nc(-c3ccc4ccc(-c5ccccc5)nc4c3)c3c(N)nccn32)C1"
  targetOrTestSystem: "SW 954"
  pIC50: "< 5.59"
- compound: "Cc1cnc(-c2cnc(NCCNc3ccc(C#N)cn3)nc2-c2ccc(Cl)cc2Cl)[nH]1"
  targetOrTestSystem: "SW 954"
  pIC50: "< 5.59"
- compound: "C=C1C(=O)O[C@@H]2C3O[C@]3(C)CC/C=C(\\C)CC[C@@H]12 (stereo not given in full)"
  targetOrTestSystem: "SW 954"
  pIC50: "< 5.30"
- compound: "CO[C@H]1C[C@@H]2CC[C@@H](C)[C@@](O)(O2)C(=O)C(=O)N2CCCC[C@H]2C(=O)O[C@H]([C@H](C)C[C@@H]2CC[C@@H](O)[C@H](OC)C2)CC(=O)[C@H](C)/C=C(\\C)[C@@H](O)[C@@H](OC)C(=O)[C@H](C)C[C@H](C)/C=C/C=C/C=C/1C"
  targetOrTestSystem: "SW 954"
  pIC50: "< 7.00"

Next item in the queue.
Query: Which value of pIC50 has been reported for CC1=C2C[C@H]3[C@@H](CC=C4C[C@@H](O)CC[C@@]43C)[C@@H]2CC[C@]12O[C@@H]1C[C@H](C)CN[C@H]1[C@H]2C in the records?
Reply: < 4.80
